Substrate: CCCC(=O)Oc1ccc([N+](=O)[O-])cc1
PROTOCOL TEXT: purified protein
Format: biochemical, Sutcliffiella cohnii
EXPERIMENTAL SETUP: 50 mM Tris-HCl pH 8.0, 20 °C
MEASUREMENT LABEL: kcat/Km (M⁻¹ s⁻¹)
Respond with the bare value in M⁻¹ s⁻¹.

Check out these entries, answers already filled in.
| PROTEIN | kcat/Km [M⁻¹ s⁻¹] |
| --- | --- |
| EstN7 (Sutcliffiella cohnii; W206A) (protein, recombinant, purified from E. coli BL21(DE3); dimer; catalytic triad S157, D254, H284) MKNRIDPELRAMLDMFPPLNLDDVQATRKAMEEAAQLTELPVDEEVVVSNRMVPGPEDNPYVRVRIYEPKEKIEKLPGLLWIHGGGYVLGAPEGDDLLCQRFVKEANCVVVSVDYRLAPEHPYPAPLEDCYAALQWFAKKVDELGVDASRIGVGGQSAGGGLTAALALLARDRKGPELCFQMPLYPMIDDKNNSPSSLEITGNLIANHDLNEKGWSMYLDGKNGTDDVPVHAAPARATDLTNLPYTYTCVGQLDPFRDETLDYVKRLCQAGVDVEFHLYPGAYHGFETLNPAAAVSQRALAEYVGAVKHVLNREKVVERK | 6670 |
| EstN7 (Sutcliffiella cohnii; N211A) (protein, recombinant, purified from E. coli BL21(DE3); dimer; catalytic triad S157, D254, H284) MKNRIDPELRAMLDMFPPLNLDDVQATRKAMEEAAQLTELPVDEEVVVSNRMVPGPEDNPYVRVRIYEPKEKIEKLPGLLWIHGGGYVLGAPEGDDLLCQRFVKEANCVVVSVDYRLAPEHPYPAPLEDCYAALQWFAKKVDELGVDASRIGVGGQSAGGGLTAALALLARDRKGPELCFQMPLYPMIDDKNNSPSSLEITGNLIWNHDLAEKGWSMYLDGKNGTDDVPVHAAPARATDLTNLPYTYTCVGQLDPFRDETLDYVKRLCQAGVDVEFHLYPGAYHGFETLNPAAAVSQRALAEYVGAVKHVLNREKVVERK | 7500 |

Field: next protein
Using the record for EstN7 (Sutcliffiella cohnii; M187A/N211A) (protein, recombinant, purified from E. coli BL21(DE3); dimer; catalytic triad S157, D254, H284) MKNRIDPELRAMLDMFPPLNLDDVQATRKAMEEAAQLTELPVDEEVVVSNRMVPGPEDNPYVRVRIYEPKEKIEKLPGLLWIHGGGYVLGAPEGDDLLCQRFVKEANCVVVSVDYRLAPEHPYPAPLEDCYAALQWFAKKVDELGVDASRIGVGGQSAGGGLTAALALLARDRKGPELCFQMPLYPAIDDKNNSPSSLEITGNLIWNHDLAEKGWSMYLDGKNGTDDVPVHAAPARATDLTNLPYTYTCVGQLDPFRDETLDYVKRLCQAGVDVEFHLYPGAYHGFETLNPAAAVSQRALAEYVGAVKHVLNREKVVERK , report its kcat/Km.
46800
